target: voltage-dependent anion channel 1 (human, UniProt P21796 1-283, amine reactive RED-NHS NT-647 dye (for MST)); assay: MST
Sequence (P21796 whole entry): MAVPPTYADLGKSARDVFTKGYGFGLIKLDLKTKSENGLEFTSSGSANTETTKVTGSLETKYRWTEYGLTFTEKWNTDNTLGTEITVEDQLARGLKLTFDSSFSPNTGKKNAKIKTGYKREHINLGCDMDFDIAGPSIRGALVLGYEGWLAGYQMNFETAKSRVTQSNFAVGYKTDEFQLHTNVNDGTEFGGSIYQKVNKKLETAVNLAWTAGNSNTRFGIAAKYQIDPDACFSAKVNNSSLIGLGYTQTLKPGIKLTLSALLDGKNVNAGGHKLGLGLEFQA
Readout: pKd
Please note pKd is a logarithmic value: minus log10 of concentration in mol/L. Answer with that number alone.

Entry mitoNEET (natural protein, human) RFYVKDHRNKAMINLHIQKDNPKIVHAFDMEDLGDKAVYCRCWRSKKFPFCDGAHTKHNEETGDNVGPLIIKKKET , pKd reported as 7.12
